targetOrSystem: T1, Tau40 P301L protein (human)
T1 sequence: WIKIRR
experimentalProtocol: cell-based or functional assay
Square brackets hold non-standard residues; d marks the D form. Ends that are not written are not given here. dCha = N[C@H](CC1CCCCC1)C(=O)O; dNle = CCCC[C@@H](N)C(=O)O
Binary call on IC50, Tau40 assay (ThT) with cut-off 2000 nM: strictly below means Fulfilled, and equality or higher means Not fulfilled.

[dL][dK][dI][dR][dNle][dH][dY] [lkiruhy (PEPTIDE ID NO: 267)]
Fulfilled
[dNle][dR][dL][dK][dV][dR][dW] [urlkvrw (PEPTIDE ID NO: 282)]
Fulfilled
[dL][dK][dNle][dR][dI][dH][dY] [lkurihy (PEPTIDE ID NO: 279)]
Fulfilled
[dW][dR][dCha][dK][dV][dR][dW] [wrbkvrw (PEPTIDE ID NO: 286)]
Fulfilled
[dCha][dR][dL][dK][dV][dR][dW] [brlkvrw (PEPTIDE ID NO: 293)]
Fulfilled
[dNle][dK][dI][dR][dI][dH][dY] [ukirihy (PEPTIDE ID NO: 203)]
Fulfilled
[dW][dR][dNle][dK][dV][dR][dW] [wrukvrw (PEPTIDE ID NO: 258)]
Fulfilled
[dW][dR][dL][dK][dCha][dR][dW] [wrlkbrw (PEPTIDE ID NO: 307)]
Not fulfilled

Field: below-cutoff. Rule: recorded IC50, Tau40 assay (ThT) strictly less than 2000 nM. Subject: [dW][dR][dL][dK][dNle][dR][dW] [wrlkurw (PEPTIDE ID NO: 308)]
Not fulfilled

Field: below-cutoff. Rule: recorded IC50, Tau40 assay (ThT) strictly less than 2000 nM. Subject: [dL][dK][dNle][dR][dNle][dH][dY] [lkuruhy (PEPTIDE ID NO: 287)]
Fulfilled

Field: below-cutoff. Rule: recorded IC50, Tau40 assay (ThT) strictly less than 2000 nM. Subject: [dW][dR][dNle][dK][dNle][dR][dW] [wrukurw]
Not fulfilled
